protocol.text: FBMN analysis of short peptides in small intestine contents and serum after oral DHG
run.conditions: small intestine contents, 120 min after oral DHG, C57 mice; FBMN feature intensity, peptides smaller than 690 Da
Square brackets hold non-standard residues; d marks the D form. Peptide text beside a SMILES is read from it. pGlu = O=C1CC[CH](C(=O)O)N1
observable: Peptide signal (feature intensity) in the small intestine, 120 min

[[record]]
molecule = "O=C1CCC(C(=O)NC(Cc2ccc(O)cc2)C(=O)O)N1 (stereo not drawn) [PyroGlu-Tyr] ([pGlu]-Tyr-OH; configuration not given here)"
observed_measurement = "0.00E+00"

[[record]]
molecule = "CSCCC(N)C(=O)NC(C(=O)O)C(C)C (stereo not drawn) [Met-Val] (H-Met-Val-OH; configuration not given here)"
observed_measurement = "5.98E+05"

[[record]]
molecule = "O=C1N[C@@H](Cc2ccccc2)C(=O)N2C[C@@H](O)C[C@@H]12 [cyclo(L-Phe-L-4-Hyp)]"
observed_measurement = "1.15E+07"

[[record]]
molecule = "CC(C)C[C@H](N)C(=O)N[C@@H](CCC(=O)O)C(=O)N[C@@H](CCCCN)C(=O)O [Leu-Glu-Lys] (H-Leu-Glu-Lys-OH)"
observed_measurement = "0.00E+00"

[[record]]
molecule = "CC(C)CC(N)C(=O)NC(C(=O)O)C(C)C (stereo not drawn) [Leu-Val] (H-Leu-Val-OH; configuration not given here)"
observed_measurement = "0.00E+00"

[[record]]
molecule = "CSCCC(N)C(=O)NC(CC(C)C)C(=O)O (stereo not drawn) [Met-Leu] (H-Met-Leu-OH; configuration not given here)"
observed_measurement = "4.03E+05"

[[record]]
molecule = "CC[C@H](C)[C@H](N)C(=O)N[C@@H](CCC(=O)O)C(=O)N[C@@H](CCCCN)C(=O)O [Ile-Glu-Lys] (H-Ile-Glu-Lys-OH)"
observed_measurement = "0.00E+00"

[[record]]
molecule = "CC(C)C[C@H](NC(=O)[C@@H](N)[C@@H](C)O)C(=O)O [Thr-Leu] (H-Thr-Leu-OH)"
observed_measurement = "0.00E+00"

[[record]]
molecule = "CCC(C)C(N)C(=O)NC(CCCCN)C(=O)O (stereo not drawn) [Ile-Lys] (H-Ile-Lys-OH; configuration not given here)"
observed_measurement = "0.00E+00"

[[record]]
molecule = "CC(C)[C@H](NC(=O)[C@@H](N)CO)C(=O)O [Ser-Val] (H-Ser-Val-OH)"
observed_measurement = "0.00E+00"

[[record]]
molecule = "N[C@@H](Cc1ccccc1)C(=O)N[C@@H](CCC(=O)O)C(=O)O [Phe-Glu] (H-Phe-Glu-OH)"
observed_measurement = "0.00E+00"

[[record]]
molecule = "CC(C)C(NC(=O)C(N)Cc1ccccc1)C(=O)O (stereo not drawn) [Phe-Val] (H-Phe-Val-OH; configuration not given here)"
observed_measurement = "0.00E+00"

[[record]]
molecule = "C[C@@H](O)[C@H](NC(=O)[C@@H](N)Cc1ccccc1)C(=O)O [Phe-Thr]"
observed_measurement = "0.00E+00"

[[record]]
molecule = "O=C1CCC(C(=O)N2CCCC2C(=O)O)N1 (stereo not drawn) [PyroGlu-Pro] ([pGlu]-Pro-OH; configuration not given here)"
observed_measurement = "0.00E+00"

[[record]]
molecule = "CSCC[C@H](NC(=O)[C@@H](N)Cc1c[nH]c2ccccc12)C(=O)O [Trp-Met] (H-Trp-Met-OH)"
observed_measurement = "0.00E+00"

